- target-of-assay: HLA-B*58:01
- experimental-details: IEDB peptide-MHC binding, purified MHC/direct/fluorescence; filed as Kd, often an IC50 or EC50 that approximates it; bounds were set here for any values at or beyond the usual limits of such assays
- test-parameters: source organism: Giardia lamblia ATCC 50803
pKd: −log10 of the molar value.
Recorded pKd by entry

// known answers, use as guide
NTWNQITKF : 6.04
YMYAATNTH : ≤ 4.70
SVKERGPAY : ≤ 4.70
RPRGHREFC : ≤ 4.70

Moving on to another sequence below.
[Q] Requested read-out: pKd. Entry: "LPVFATIGL"
[A] ≤ 4.70

----------
- target-of-assay: HLA-B*44:03
- experimental-details: IEDB peptide-MHC binding, purified MHC/competitive/radioactivity; filed as Kd, often an IC50 or EC50 that approximates it; bounds were set here for any values at or beyond the usual limits of such assays
- test-parameters: source organism: Dengue virus 4 Philippines/H241/1956
assay-readout: pKd
# pKd: negative log10 of molar concentration; output just the value

// known answers, use as guide
REDLWCGSLI : 6.40
VEGVSGGAW : 6.94

Moving on to another sequence below.
[Q] Requested read-out: pKd. Entry: "AETQHGTTV"
[A] 5.84

----------
- target-of-assay: HLA-B*15:01
- experimental-details: IEDB peptide-MHC binding, purified MHC/direct/fluorescence; filed as Kd, often an IC50 or EC50 that approximates it; bounds were set here for any values at or beyond the usual limits of such assays
- test-parameters: source organism: Giardia lamblia ATCC 50803
Recorded Kd by entry
Give the value in nM but do not write nM after it.

YMYAATNTH : 40

[Q] Requested read-out: Kd. Entry: "SVKERGPAY"
[A] 179

----------
- target-of-assay: HLA-A*02:17
- experimental-details: IEDB peptide-MHC binding, purified MHC/competitive/radioactivity; filed as Kd, often an IC50 or EC50 that approximates it; bounds were set here for any values at or beyond the usual limits of such assays
- test-parameters: source organism: Dengue virus 4 Philippines/H241/1956
Recorded pKd by entry
# pKd: negative log10 of molar concentration; output just the value

KLSMGLIAI : 5.61
YMPTVIEEL : 8.28

[Q] Requested read-out: pKd. Entry: "FMTATPPGA"
[A] 5.19

----------
- target-of-assay: HLA-A*11:01
- experimental-details: IEDB peptide-MHC binding, purified MHC/direct/fluorescence; filed as Kd, often an IC50 or EC50 that approximates it; bounds were set here for any values at or beyond the usual limits of such assays
- test-parameters: source organism: Vibrio vulnificus
assay-readout: Kd (µM)
Give the value in µM but do not write µM after it.

[Q] Requested read-out: Kd. Entry: "DAYGFHNYK"
[A] 0.13

----------
- target-of-assay: HLA-A*03:01
- experimental-details: IEDB peptide-MHC binding, purified MHC/competitive/fluorescence; filed as Kd, often an IC50 or EC50 that approximates it; bounds were set here for any values at or beyond the usual limits of such assays
- test-parameters: source organism: Escherichia coli
pKd: −log10 of the molar value.
assay-readout: pKd

[Q] Requested read-out: pKd. Entry: "MFWKLPPWL"
[A] ≤ 4.70

----------
- target-of-assay: HLA-A*30:01
- experimental-details: IEDB peptide-MHC binding, purified MHC/direct/fluorescence; filed as Kd, often an IC50 or EC50 that approximates it; bounds were set here for any values at or beyond the usual limits of such assays
- test-parameters: source organism: Giardia lamblia ATCC 50803
assay-readout: Kd (nM)
Give the value in nM but do not write nM after it.

[Q] Requested read-out: Kd. Entry: "SVKERGPAY"
[A] 35.4
